- Target system: UniProtKB P62330
Assay metric: IC50 (µM)

[
  {
    "Chem smiles": "CN(C)[C@@H]1C(O)=C(C(N)=O)C(=O)[C@@]2(O)C(O)=C3C(=O)c4c(O)ccc(Cl)c4[C@@](C)(O)[C@H]3C[C@@H]12",
    "Recorded value": 75
  }
]
